biological target: Melatonin receptor type 1A (Homo sapiens, UniProt P48039); assay: Binding affinity to MT1 receptor (unknown origin) expressed in HEK293 cells; format: cell-based
Sequence (P48039 whole entry): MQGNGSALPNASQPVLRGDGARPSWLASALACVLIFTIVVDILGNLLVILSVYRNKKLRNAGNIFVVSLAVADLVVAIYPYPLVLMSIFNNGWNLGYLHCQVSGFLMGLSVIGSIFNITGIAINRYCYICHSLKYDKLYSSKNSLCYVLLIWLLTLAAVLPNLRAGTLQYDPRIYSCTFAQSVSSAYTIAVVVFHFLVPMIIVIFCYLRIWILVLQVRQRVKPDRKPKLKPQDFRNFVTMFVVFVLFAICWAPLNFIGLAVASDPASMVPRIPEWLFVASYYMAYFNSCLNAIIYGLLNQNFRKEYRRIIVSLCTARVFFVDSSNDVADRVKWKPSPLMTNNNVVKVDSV
RECORDED METRIC: IC50 (nM)
Provide the reading as a plain figure in nM.

Query :: Observed IC50 on Melatonin receptor type 1A (Homo sapiens, UniProt P48039) for CCCNC(=O)CCCc1cccc2c1SCCO2 , please.
Result :: 2.3

* * *

target: UniProt:P48039; assay: Binding affinity to MT1 receptor (unknown origin) expressed in HEK cells; assay type: cell-based, HEK293
RECORDED METRIC: pKi
By convention, pKi is the negative base-10 log of a molar concentration.

Query :: Name the recorded pKi for CCCCCCOc1ccc2c(c1)C(CCNC(C)=O)CCO2 (stereo unspecified) .
Result :: 8.92
